Recorded protein stability index, one value per entry.
# assay method text: protein stability index of a GFP-peptide fusion (yeast GPS) (PSI 1-4); higher = more stable; sorted into four equal gates, so the index is relative within each strain
# experimental conditions: doa10∆
quantity name: protein stability index

{"input sequence": "ERRMQVTAEDFKQAKER [RPT2]", "test result": 3.02}
{"input sequence": "LLKKIIFEKELMYQIKK [SRB4]", "test result": 2.8}
{"input sequence": "KRVTIQKKDIKLARRLR [HHT1]", "test result": 3.15}
{"input sequence": "NVIRSLEQEYRLILLLN [RMP1]", "test result": 1.44}
{"input sequence": "NRSVVYFKLDLTSDLVY [RRI2]", "test result": 1.37}
{"input sequence": "RLAEFKRRKLDLNNAVQ [SMC4]", "test result": 3.28}
{"input sequence": "EPSDLRSWTLTSEMKVL [YGL100W/SEH1]", "test result": 2.92}
{"input sequence": "HSNLEKISNSKLLSLLR [SIR4]", "test result": 2.4}
{"input sequence": "DEMYELTDPMTVMFFYH [DIB1]", "test result": 2.69}
{"input sequence": "MSGSLSRGNGGKKVLNK [POP1]", "test result": 1.34}
{"input sequence": "HTQDIIGGMRVDENGDP [RET1]", "test result": 3.2}
{"input sequence": "SNGNNLPLNKPRLEKLI [RGR1]", "test result": 3.27}
{"input sequence": "EQGIELEHIDSKSEFAH [FAS2]", "test result": 2.88}
{"input sequence": "PYLVANVVEVMDMNEIE [RPT5]", "test result": 2.86}
{"input sequence": "VQLLSKSHNAHVRCGTA [RPN2]", "test result": 1.44}
{"input sequence": "TFHHHGRQTVLIKDNSA [SRB2]", "test result": 1.92}
{"input sequence": "TNLKMKRKWSYVLYAKI [RRP43]", "test result": 1.71}
{"input sequence": "KHYKNIPRNSPLSDLKK [RPC82]", "test result": 2.88}
{"input sequence": "MVCETDVPSEDDPTQLV [RPO21]", "test result": 3.03}
{"input sequence": "QNVTSETHSKKRKKEAN [ITC1]", "test result": 2.92}
{"input sequence": "SMENTPKVPVSAAATPS [GAL11]", "test result": 2.07}
{"input sequence": "IREIDVTGGKKALVLFV [RPS7B]", "test result": 1.3}
{"input sequence": "ASIGQAAEQQSKAFKES [SRP54]", "test result": 3.45}
{"input sequence": "FFLRDTLLWNKNDKLIK [SNF5]", "test result": 2.4}
{"input sequence": "TINLDRFMKGRRSKQLI [RPC82]", "test result": 2.09}
{"input sequence": "FSMGHIRSSSVSLVAEA [MED4]", "test result": 1.52}
{"input sequence": "NTGGESVVKKEDNKYAI [RGR1]", "test result": 3.51}
{"input sequence": "GNNNNNNSGNDNNNTTN [MED2]", "test result": 3.06}
{"input sequence": "GNEVSSLYPPPPPYVKF [MED7]", "test result": 3.17}
{"input sequence": "LSTSVGWKYEDVVAKLE [RPL16A]", "test result": 3.44}
{"input sequence": "YGTATADDADIEMKDVS [MED1]", "test result": 3}
